Values compiled from patent US20230416224A1.

test: Particle size distribution of ORZY-05 by Malvern Mastersizer 3000; format: physicochemical; conditions: ORZY-05 particles, Malvern Mastersizer 3000, volume distribution
Experimental readout: D10 (μm)
Dear colleague, please return just the value in μm, with no unit written.

Compound	D10, μm
O=C(O)CC(O)(CC(=O)O)C(=O)O.[O-][n+]1cccc(/C(Cl)=N/OC[C@H](O)CN2CCCCC2)c1 [compound 2003, arimoclomol citrate]	4.65
O=C(O)CC(O)(CC(=O)O)C(=O)O.[O-][n+]1cccc(/C(Cl)=N/OC[C@H](O)CN2CCCCC2)c1 [compound 1003, arimoclomol citrate]	6.00
O=C(O)CC(O)(CC(=O)O)C(=O)O.[O-][n+]1cccc(/C(Cl)=N/OC[C@H](O)CN2CCCCC2)c1 [compound 2002, arimoclomol citrate]	4.33

Now for a further compound.
**Query** GET /values?readout=D10&item= O=C(O)CC(O)(CC(=O)O)C(=O)O.[O-][n+]1cccc(/C(Cl)=N/OC[C@H](O)CN2CCCCC2)c1 [compound 2005, arimoclomol citrate]
**Result** 11.2

* * *

test: Particle size distribution of ORZY-05 by static automated imaging (Morphologi 4); format: physicochemical; details: ORZY-05 particles
Experimental readout: Number Length D50 (μm)
Report the value in μm with no unit label.

Molecule	Number Length D50 [μm]
O=C(O)CC(O)(CC(=O)O)C(=O)O.[O-][n+]1cccc(/C(Cl)=N/OC[C@H](O)CN2CCCCC2)c1 [18-001, arimoclomol citrate]	4.10

**Query** Would you mind telling me what Number Length D50 value was observed for O=C(O)CC(O)(CC(=O)O)C(=O)O.[O-][n+]1cccc(/C(Cl)=N/OC[C@H](O)CN2CCCCC2)c1 [compound 1002, arimoclomol citrate] ?
**Result** 7.37

**Query** Fill blank: measured Number Length D50 of the molecule O=C(O)CC(O)(CC(=O)O)C(=O)O.[O-][n+]1cccc(/C(Cl)=N/OC[C@H](O)CN2CCCCC2)c1 [compound 1004, arimoclomol citrate] is ____.
**Result** 6.18

**Query** Recorded Number Length D50 for O=C(O)CC(O)(CC(=O)O)C(=O)O.[O-][n+]1cccc(/C(Cl)=N/OC[C@H](O)CN2CCCCC2)c1 [17-002, arimoclomol citrate] , please?
**Result** 3.20

**Query** Request the reported Number Length D50 associated with O=C(O)CC(O)(CC(=O)O)C(=O)O.[O-][n+]1cccc(/C(Cl)=N/OC[C@H](O)CN2CCCCC2)c1 [18-002, arimoclomol citrate]
**Result** 3.60

**Query** Entry O=C(O)CC(O)(CC(=O)O)C(=O)O.[O-][n+]1cccc(/C(Cl)=N/OC[C@H](O)CN2CCCCC2)c1 [18-004, arimoclomol citrate] : reported Number Length D50 = ?
**Result** 15.40

* * *

experiment: Particle size distribution of ORZY-05 by static automated imaging (Morphologi 4); assay type: physicochemical; settings: ORZY-05 particles
Each entry below carries its recorded Number CE Diameter D50.
Field: numeric (μm). Do not append units.

Completed entries (count: 5):
Compound	Number CE Diameter D50 (μm)
O=C(O)CC(O)(CC(=O)O)C(=O)O.[O-][n+]1cccc(/C(Cl)=N/OC[C@H](O)CN2CCCCC2)c1 [17-002, arimoclomol citrate]	2.20
O=C(O)CC(O)(CC(=O)O)C(=O)O.[O-][n+]1cccc(/C(Cl)=N/OC[C@H](O)CN2CCCCC2)c1 [17-004, arimoclomol citrate]	2.00
O=C(O)CC(O)(CC(=O)O)C(=O)O.[O-][n+]1cccc(/C(Cl)=N/OC[C@H](O)CN2CCCCC2)c1 [18-001, arimoclomol citrate]	2.50
O=C(O)CC(O)(CC(=O)O)C(=O)O.[O-][n+]1cccc(/C(Cl)=N/OC[C@H](O)CN2CCCCC2)c1 [18-004, arimoclomol citrate]	12.00
O=C(O)CC(O)(CC(=O)O)C(=O)O.[O-][n+]1cccc(/C(Cl)=N/OC[C@H](O)CN2CCCCC2)c1 [18-002, arimoclomol citrate]	2.20

Okay, next one:
**Query** Fill blank: measured Number CE Diameter D50 of the compound O=C(O)CC(O)(CC(=O)O)C(=O)O.[O-][n+]1cccc(/C(Cl)=N/OC[C@H](O)CN2CCCCC2)c1 [17-001, arimoclomol citrate] is ____.
**Result** 1.60
